- System: Echinochloa crus-galli
- procedureSummary: Pre-emergence herbicidal effect
- Type: in vivo
- experimentalContext: 80 g/ha, visual score after 3 weeks vs untreated controls
quantityKind: Pre-emergence action ECHCG (herbicidal activity in percent) (%)
One number for each entry, in %.

Worked cases, Pre-emergence action ECHCG (herbicidal activity in percent) given:
CC#Cc1cc(Br)c(C2=C(OC(=O)OCC)C3(CCC(OCCOC)CC3)NC2=O)c(OC)c1 (stereo not drawn) [Example 1.3.07] | 100
C=CCOC1CCC2(CC1)NC(=O)C(c1c(Br)cc(C#CC)cc1OC)=C2OC(=O)C(C)C (stereo not drawn) [Example 1.3.04] | 100
C=CCOC1CCC2(CC1)NC(=O)C(c1c(Br)cc(C#CC)cc1OC)=C2O (stereo not drawn) [Example 1.3.01] | 90
CC#Cc1cc(Br)c(C2=C(OC(=O)OC)C3(CCC(OCCOC)CC3)NC2=O)c(OC)c1 (stereo not drawn) [Example 1.3.06] | 100
CC#Cc1cc(Br)c(C2=C(O)C3(CCC4(CC3)OCCO4)NC2=O)c(OC)c1 [Example 1.2.03] | 100

Attention now shifts to the item below.
// query Query: Pre-emergence action ECHCG (herbicidal activity in percent); subject: CC#Cc1cc(Br)c(C2=C(OC(=O)OCC)C3(CCC(OC(C)C)CC3)NC2=O)c(OC)c1 (stereo not drawn) [Example 1.3.12]
// result 100
